Provenance of the data: PubChem BioAssay (NCI)

# System: HOP-92 NSCLC
# measurement description: NCI-60 one-dose screen, 48 h
# experimental setup: 10 µM unless noted
The panel holds about 83,000 compounds, 20% with a hit somewhere; the sample as a whole holds those more often. Activity calls are given as the source filed them. The calls were made as follows: active = growth percent below 10; inactive = the rest.
Hi there, use one of these labels in your reply, thanks! Y (active), N (inactive)

Completed entries (count: 3):
COc1ccc(-c2ccc3cnc4sc(-c5ccc(OC)cc5)nc4c3n2)cc1 : N
CC1(C)CCC(S(=O)(=O)c2ccc3c(c2)/C(=N\O)c2cc(S(=O)(=O)N4CCC(O)(c5cccc(C(F)(F)F)c5)CC4)ccc2-3)CC1 : Y
CN(Cc1ccc(C(F)(F)F)cc1)CC(O)C(=O)Nc1ccc(Cl)cc1 (centres undefined) : Y

# input Which result was noted for this compound in the test: `O=C(Nn1c2c(sc1=Nc1ccccc1)C(=O)c1ccccc1C2=O)c1cc2ccc1CCc1ccc(cc1)CC2`
# output N

# input Check CCCCN1C(=O)/C(=c2\sc3n(c2=O)C2C(NN=3)N(CC)C(=O)N2CC)c2ccccc21 (centres undefined) too.
# output N

# input Check `N#Cc1c(-c2ccc(Cl)cc2)nc(SCC(=O)NC2=NN=C(c3ccccc3)CS2)[nH]c1=O` too.
# output N

# input Check CC(C)NC1CCC(Nc2ccnc3cc(Cl)ccc23)CC1 (centres undefined) too.
# output N

# input Check `CCOC(=O)C(=Cc1cccc(Br)c1)C(=O)OCC` too.
# output N

# input Check `C#Cc1cccc(Nc2ncnc3ccc(-c4cnc(N)nc4)cc23)c1` too.
# output N

====

# System: A549/ATCC NSCLC
# measurement description: NCI-60 one-dose screen, 48 h
# experimental setup: 10 µM unless noted
# Experimental: Growth inhibition of the A549/ATCC human Non-Small Cell Lung tumor cell line is measured as a screen for anti-cancer activity. Cells are grown in 96 well plates and exposed to the test compound for 48 hours. Compounds are tested at a single concentration, which is 10^-5 M for most compounds. The reported endpoint is percent growth (GI% or GIPRCNT), where numbers from 0 - 100% represent growth inhibition, and numbers from -100% - 0 represent cell death. […]
This is part of a sample that, as a whole, favours compounds with a hit. Of some 83,000 tested, about 20% had one in any assay. The source made the active and inactive calls. The calls were made as follows: active = growth percent below 10; inactive = the rest.
Hi there, use one of these labels in your reply, thanks! T (active), F (inactive)

COC(=O)c1c2c(c(C)[n+]([O-])c1C)C(=O)C=C(NCc1ccc(OC)cc1)C2=O : T
O=C1N(Cc2ccccc2Cl)c2ccccc2C12NN=C(c1cccc(Cl)c1)S2 (centres undefined) : T
Cc1nc2ncnc(Cl)c2[nH]1 : F
CCOC(=O)c1ccc2[nH]c(O)c(C(=Nc3ccc(N(C)C(=O)CN4CCN(C)CC4)cc3)c3ccccc3)c2c1 : T
Cn1c(=O)c2c(nc(NC3=NS(=O)(=O)c4ccccc43)n2CC(=O)N2CCc3ccccc32)n(C)c1=O : F
CO[C@H]1/C=C(/C)CCC[C@H](C)[C@H](O)[C@@H](C)C(=O)C(C)(C)[C@@H](O)CC(=O)O[C@@H]1/C(C)=C/c1csc(C)n1 : F

# input Which result was noted for this compound in the test: `Cc1c(-n2nnc(-c3nc4ccccc4s3)c2N)c(=O)n(-c2ccccc2)n1C`
# output F

# input Check `Cn1cc(-c2nc(-c3c[nH]c4ccncc34)cs2)c2ccccc21` too.
# output F

# input Check `CC1=Nc2cnc(Nc3ccc(OCCN4CCCC4)cc3)nc2Nc2ccccc21` too.
# output F
